Data provenance is the RNAGym collection of RNA variant scans (doi:10.1073/pnas.2313332121).

B1: TPR t1 (parent)
chain: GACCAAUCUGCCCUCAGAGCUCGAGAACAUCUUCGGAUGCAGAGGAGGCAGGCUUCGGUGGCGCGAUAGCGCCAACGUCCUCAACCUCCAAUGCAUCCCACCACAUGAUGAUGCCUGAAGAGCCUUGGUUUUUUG

# Variants of: B1
# assay_notes: polymerase ribozyme fitness, log enrichment relative to wild type (log ratio); higher = more active; in vitro selection for triplet polymerase activity
Classify as follows. Reported polymerase ribozyme fitness (log ratio) greater than or equal to -3: True. Reported polymerase ribozyme fitness (log ratio) below: False.

Reference set (4 entries):
INSERT INTO measurements (sequence_code, label_value) VALUES
  ('GACCACUCUGCCCUCAGAGCUCGAGAACAUCUUCGGAUGCAGAGGAGGCAGGCUUCGGUGGCGCGAUAGCGCCAACGACCUCAACCUCCAAUGGAUCCCACCACAGGAUGAUGCCUGAAGAGCCUUGGUUUUUUG', 'False'),
  ('GACCAAUCUGCCCUCAGAGCUCGAGAACAUCUUCGGAUGCAGAGGAGGCAGGCUUCUGUGGCGCGAUAGCGCCAACGUCCUCAACCUCCAAUGCAUCCCACCACAUGAUGAUGCCAGAAGAGCCUUGGUUUUUUG', 'False'),
  ('GACCAAUCUGCGCUCAGAGCUCGAGAACAUCUUCGGAUGCAGAGGAGGCAGGCUUCGGUGGCGCGAUAGCGACAACGUCCUCAACCUCCAAUGCAUCCCACCAUAUGAUGAUGCCUGAAGAGUAUUGGUUUUUUG', 'True'),
  ('GACCAAUCUGCCCUCAGAGCUCGAGAACAUCUUCGGAUGCAUAGGAGGCAGGCUUCGGUGGCGCGAUAGCGCCGACGUCCUCAAACUCCAAUGCAUCCCACCACAUGAUGAUGCCUGAAGAGCCUUGGUUUUUUG', 'True');

Could you tell me if the measured polymerase ribozyme fitness (log ratio) of GACCACUCUGCCCUCAGAGCUCGAGAACAUCUUCGGAUGCAGAGGAGGCAGGCUUCGGUGGCGCGAUAGCGCCAACGCCCUCAACCUCCAAUGCAUCCCUCCACAUGAUGAUGCCUGAAAAGCCUUGGUUCUUUG reaches -3 or more?
True

Could you tell me if the measured polymerase ribozyme fitness (log ratio) of GACCAAUCUGCCCUCAGAGCUCGAGAACAUCUUCGGAUGCAGAGGCGGCAGGCUUCGAUGGUGCGAUAGCGCCAACGUCCUCAACCUCCAAUGCAUCCCACCACAUGAUGAUGCCUGAAGAGCCUUGGUUUUUUG reaches -3 or more?
True

Could you tell me if the measured polymerase ribozyme fitness (log ratio) of GACCAAUCUGCCCUCAGAGCUCGAGAACAUCUUCGGAUGCAGAGGAGACAGGCUUCGGUGGCGCGAUAGCGCCAACGUCCUCAACCUCCAAUGCAUCCCACCACAUGAUGAUGCCUGAACAGCCUUGGUUUUUUG reaches -3 or more?
True

Could you tell me if the measured polymerase ribozyme fitness (log ratio) of GACCAAUCUGCCCUCAGAGCUCGAGAACAUCUUCGGAUGCAGAGGAGACAGGCUUUGGUGGCGCGAUAGCGCCAACGUCCUCAACCUCCAAUCGAUCCCACCACAUGAUGAUGCCUGAAGAGCCUUGGUUUUUUG reaches -3 or more?
False

Could you tell me if the measured polymerase ribozyme fitness (log ratio) of GAUCAAUCUGCCCUCAGAGCUCGAGAACAUCUUCGGAUGCAGAGGAGGCAGGCUUCGGUGGCGCGAUAGCGCGAACGUCCUCGACCUCCAAUGCAUCCCACCACAUGAUGAUGCCUGAAGAGCCUUGGUUUUUUG reaches -3 or more?
True

Could you tell me if the measured polymerase ribozyme fitness (log ratio) of GACCAAUCUGCCCUCAGAGCUCGAGAACAUCUUCGGAUGCAGAGGAGGCAGGCUUAGGUGGCGCGAUAGCACCAACGUCCUCAACCUCCAAUGCAUCCCACCACAUGAUGAUGCCUGAAGAGCCUUGGUUUUUUG reaches -3 or more?
False

Could you tell me if the measured polymerase ribozyme fitness (log ratio) of GACCAAUCUGCCCUCAGACCUCGAGAACAUCUUCGGAUGAAGAGGAGGCAGGCUUCGGUGGCGCGAUAGCGCCAACGUCCUCAAUCUCCAAUGCAUCCCACCACAUGAUGAAGCCUGAAGAGCCUUGGUUUUUUG reaches -3 or more?
True

Could you tell me if the measured polymerase ribozyme fitness (log ratio) of GACCAAUCUGCCCUCAGAGCUCGAGAACAUCUUCGGAUGCCGAGGAGGCAGGCUUCGGUGGCGUGAUAGCGCCAACGCCCUCAACCUCCAAUGCAUCCCACCACAAGAUGAUGCCUGAAGAGCCUUGGUUUUUUG reaches -3 or more?
True

Could you tell me if the measured polymerase ribozyme fitness (log ratio) of GACCAAUCUGCCCUCAGAGCUCGAGAACAUCUUCGGAUGCAGAGGAGUCAGGCUUCGGUGUCGCGAUAGCGCCAACGUCCUCAACCUUCAAUGCAUCCCACCACAUGAUAAUGCCUGAAGAGCCUUGGUUUUUUG reaches -3 or more?
True

Could you tell me if the measured polymerase ribozyme fitness (log ratio) of GAUCAAUGUUCCCUCAGAGCUCGAGAACAUCUUCGGAUGCAGAGCAGGCAGGCUUCGGUGGCGCGAUAGCUCCAACGUCCUCAAACUCCAAUGCAUCCCACCACAUGAUGAUGCCUGAAGAGCCUUGGUUUUUUG reaches -3 or more?
True

Could you tell me if the measured polymerase ribozyme fitness (log ratio) of GACCAAUCUGCCCUAAGAGCUCGAGAACAUCUUCGGAUGCAGAGGAGGCAGGCUUCGGUGGCGCGAUAGUGCCAACGUCCUCAACCUCCAAUCCAUCCCACCACAUGAUGAUGCCUGAAGAGCGUUGCUUUUUUG reaches -3 or more?
False
